Protocol Summary: in vitro
Test Conditions: human, hela cells, % viability
Measured Property: viability at 28.5 h, 10 µM (%)

INSERT INTO measurements (compound, result_number) VALUES
  ('CC(=O)C12c3ccccc3C(c3ccccc31)C1C(=O)N(c3ccc(Cl)c(C(=O)O)c3)C(=O)C12 (centres unmarked)', 93.8),
  ('COc1ccc(/C=C(\C)C(=O)NCc2ccc(OC3CCNCC3)cc2)cc1OC [CBK038914T]', 90.9),
  ('Cc1cc(=O)n2c3c(cc(S(=O)(=O)NCC4CCCO4)cc13)CC2 (centres unmarked)', 103),
  ('Cc1cc(Cl)ccc1NC(=O)CN1CCN(Cc2ccccc2)CC1', 93.6),
  ('CC(C)Nc1nccnc1SCCN(C)C', 92.1);
